- Test system: UACC-257 melanoma
- TEST_NAME: NCI-60 one-dose screen, 48 h
- APPLIED_CONDITIONS: 10 µM
About 83,000 compounds went through this panel and 20% of them were active in at least one assay; those are over-represented in the sample as a whole. Active and inactive are the calls of the source. Rule for the calls: active = growth percent below 10; inactive = the rest.
Possible outcomes: yes = active, no = inactive

{"COMPOUND": "COc1ccc(/C=C/C(C)=N/OCC(=O)O)cc1", "TARGET_OR_SYSTEM": "UACC-257 melanoma", "LABEL_VALUE": "no"}
{"COMPOUND": "Nc1c(C(=O)Nc2ccccc2)sc2nc3c(cc12)C(O)CCC3 (stereo not given)", "TARGET_OR_SYSTEM": "UACC-257 melanoma", "LABEL_VALUE": "no"}
{"COMPOUND": "CCOC(=O)N1C/C(=C/c2ccc(Cl)cc2)C(=O)/C(=C/c2ccc(Cl)cc2)C1", "TARGET_OR_SYSTEM": "UACC-257 melanoma", "LABEL_VALUE": "no"}
{"COMPOUND": "CN(C)CCOc1nc2ccccc2c2c1-c1ccc(Cl)cc1C2=O", "TARGET_OR_SYSTEM": "UACC-257 melanoma", "LABEL_VALUE": "yes"}
{"COMPOUND": "Cc1ccc(C(=O)N2C/C(=C/c3ccc(F)cc3)C(=O)/C(=C/c3ccc(F)cc3)C2)cc1", "TARGET_OR_SYSTEM": "UACC-257 melanoma", "LABEL_VALUE": "no"}

* * *

- System: KM12 colon
- TEST_NAME: NCI-60 one-dose screen, 48 h (100 = growth as untreated, 0 = no growth, -100 = all killed)
- APPLIED_CONDITIONS: 10 µM
About 83,000 compounds went through this panel and 20% of them were active in at least one assay; those are over-represented in the sample as a whole.
In plain terms, low growth, meaning strictly below 30%, gives class 1, and everything else gives class 0.

{"COMPOUND": "c1ccc2c(c1)oc1c3cccnc3ccc21", "LABEL_VALUE": "class 0"}
{"COMPOUND": "Nc1nc(Nc2ccccc2)n[nH]1", "LABEL_VALUE": "class 0"}
{"COMPOUND": "O=C(O)C(SC(C(=O)O)c1ccccc1)c1ccccc1 (stereo not drawn)", "LABEL_VALUE": "class 0"}
{"COMPOUND": "Cc1ccc(NC(=O)Nc2c(Cl)cccc2Cl)cn1", "LABEL_VALUE": "class 0"}
{"COMPOUND": "CC[C@H]1CCC/C=C/[C@@H]2C[C@H](O)C[C@H]2[C@H](O)/C=C/C(=O)O1", "LABEL_VALUE": "class 1"}
{"COMPOUND": "COc1cc(Cl)cc(-c2nn(-c3cccc(NC(=O)Nc4cc(C(F)(F)F)cc(C(F)(F)F)c4)c3)cc2-c2ccncc2)c1", "LABEL_VALUE": "class 1"}
{"COMPOUND": "CCCC#CCN(CC)CC", "LABEL_VALUE": "class 0"}
{"COMPOUND": "Clc1ccccc1N=Cc1ccc2c(c1)OCO2", "LABEL_VALUE": "class 0"}
{"COMPOUND": "Nc1ncn(C2OC(CO)C(O)C2O)c(=O)n1 (stereo not drawn)", "LABEL_VALUE": "class 1"}
{"COMPOUND": "Nc1ccc2c(c1)C1(CCC2)NC(=O)NC1=O (stereo not drawn)", "LABEL_VALUE": "class 0"}
{"COMPOUND": "N#Cc1ncc(-c2cc(F)c(F)c(F)c2)c(NC2CCCCCC2)n1", "LABEL_VALUE": "class 0"}
{"COMPOUND": "O=C(Nc1ccc(Cl)c([N+](=O)[O-])c1)Nc1nc2ccccc2s1", "LABEL_VALUE": "class 0"}
{"COMPOUND": "O=C(Nc1ccncc1)C(=O)c1cn(S(=O)(=O)c2cccc(Cl)c2)c2ccccc12", "LABEL_VALUE": "class 0"}
{"COMPOUND": "CS(=O)(=O)Nc1ccc(Nc2c3ccccc3nc3cc(N)ccc23)cc1", "LABEL_VALUE": "class 1"}
{"COMPOUND": "N=C1c2nc3n(c2C(=O)c2nc4n(c21)CCCC4)CCCC3", "LABEL_VALUE": "class 0"}
{"COMPOUND": "O=C1/C(=C/c2ccc(Cl)cc2)SC(=Nc2ccc(Cl)cc2)N1Cc1nc2ccccc2[nH]1", "LABEL_VALUE": "class 0"}
{"COMPOUND": "O=C1Nc2ccccc2C1=NC1CCCCC1", "LABEL_VALUE": "class 0"}
{"COMPOUND": "COc1ccc(C(=O)/C=C/c2cc(-c3cc(OC)c(OC)c(OC)c3)n[nH]2)cc1", "LABEL_VALUE": "class 1"}
{"COMPOUND": "CCCCC(CCCCCC(CCCC)NCc1ccc2c(c1)OCO2)NCc1ccc2c(c1)OCO2 (stereo not drawn)", "LABEL_VALUE": "class 1"}
{"COMPOUND": "CSC1=NCCCC1", "LABEL_VALUE": "class 0"}
{"COMPOUND": "CCCCCCN1CCN(Cc2ccc(N(CC)CC)cc2)C(=O)C1=O", "LABEL_VALUE": "class 1"}
{"COMPOUND": "CCCCCCCCCCCCCCCCCCOCC(COCCOCC[N+]1(CCCCCC(=O)[O-])CCCC1)Oc1ncccn1 (stereo not drawn)", "LABEL_VALUE": "class 1"}
{"COMPOUND": "Nc1c(C(=O)Nc2ccccc2)sc2nc3c(cc12)C(O)CCC3 (stereo not drawn)", "LABEL_VALUE": "class 1"}
{"COMPOUND": "COc1cc(Cl)cc(-c2nn(-c3cccc(NC(=O)Nc4ccc(Cl)c(Cl)c4)c3)cc2-c2ccncc2)c1", "LABEL_VALUE": "class 1"}
{"COMPOUND": "COc1ccc(-c2nc3ncccn3c2-c2nnc(-c3ccsc3C)o2)cc1", "LABEL_VALUE": "class 0"}
{"COMPOUND": "O=C(Nc1ccc(OS(=O)(=O)c2ccccc2)cc1)C12CC3CC(CC(C3)C1)C2", "LABEL_VALUE": "class 1"}
{"COMPOUND": "COc1ccc(/C(=C2\\O[C@@H]([C@H]3COC(C)(C)O3)[C@H]3OC(C)(C)O[C@@H]23)c2cc(OC)c(OC)c(OC)c2)cc1O", "LABEL_VALUE": "class 1"}
{"COMPOUND": "O=C(Nc1nc2ccccc2s1)Nc1ccc([N+](=O)[O-])cc1Cl", "LABEL_VALUE": "class 1"}
{"COMPOUND": "COc1cc(/C=C/C(=O)c2ccc(Cl)cc2)ccc1OS(=O)(=O)c1ccc(C)cc1", "LABEL_VALUE": "class 0"}
{"COMPOUND": "CCCCCCc1cc(N=Nc2ccc(S(=O)(=O)Nc3cc(C)nc(C)n3)cc2)c(O)cc1O", "LABEL_VALUE": "class 0"}
{"COMPOUND": "CN(C)C=Nc1cc(Cl)ccc1Cl", "LABEL_VALUE": "class 0"}
{"COMPOUND": "COc1ccc(N=C2C(=Nc3ccc(OC)cc3)N(c3ccc(N(C)C)cc3)C(=S)N2c2ccc(OC)cc2)cc1", "LABEL_VALUE": "class 0"}
{"COMPOUND": "O=C(CCCCC[P+](c1ccccc1)(c1ccccc1)c1ccccc1)NC(COC(=O)C(Cl)Cl)(COC(=O)C(Cl)Cl)COC(=O)C(Cl)Cl", "LABEL_VALUE": "class 0"}
{"COMPOUND": "CCc1ccc2c(c1)N(CCO)C1=C(C(=O)OC1)C2c1cc(OC)c(OC)c(OC)c1 (stereo not drawn)", "LABEL_VALUE": "class 1"}
{"COMPOUND": "O=C1NC(=O)c2ncccc21", "LABEL_VALUE": "class 0"}
{"COMPOUND": "Cc1ccc(-c2nc(/C=C3/C(=O)N(C)c4ccc(F)cc43)c3ccccn23)cc1", "LABEL_VALUE": "class 0"}
{"COMPOUND": "O=[N+]([O-])c1ccc(Oc2cccnc2)c([N+](=O)[O-])c1", "LABEL_VALUE": "class 0"}
{"COMPOUND": "O=S(=O)(Nc1ccccn1)c1ccc(N=Nc2ccc(O)c3ncccc23)cc1", "LABEL_VALUE": "class 1"}
{"COMPOUND": "CCOC(=O)CCC(NC(=O)c1ccc(N)cc1)C(=O)OCC (stereo not drawn)", "LABEL_VALUE": "class 0"}
{"COMPOUND": "COc1cc(-c2cc(/C=C3\\C(=O)Nc4cc(Cl)ccc43)[nH]n2)cc(OC)c1OC", "LABEL_VALUE": "class 1"}
{"COMPOUND": "O=C(NC(Cc1ccc(O)cc1)C(=O)N=Nc1c(O)[nH]c2ccccc12)c1ccccc1 (stereo not drawn)", "LABEL_VALUE": "class 0"}
{"COMPOUND": "CNc1ccc(CSc2ccc(C)cc2)cc1", "LABEL_VALUE": "class 0"}
